- System Under Test: T1, N1 binding to cell surface expressed hJ1 (Homo sapiens, UniProt P78504)
- T1 construct: cell expressed full length human J1 (hJ1; HEK293 transfectants); expressed in transfected cells; host or cells: HEK293
- T1 sequence (P78504 34-1218): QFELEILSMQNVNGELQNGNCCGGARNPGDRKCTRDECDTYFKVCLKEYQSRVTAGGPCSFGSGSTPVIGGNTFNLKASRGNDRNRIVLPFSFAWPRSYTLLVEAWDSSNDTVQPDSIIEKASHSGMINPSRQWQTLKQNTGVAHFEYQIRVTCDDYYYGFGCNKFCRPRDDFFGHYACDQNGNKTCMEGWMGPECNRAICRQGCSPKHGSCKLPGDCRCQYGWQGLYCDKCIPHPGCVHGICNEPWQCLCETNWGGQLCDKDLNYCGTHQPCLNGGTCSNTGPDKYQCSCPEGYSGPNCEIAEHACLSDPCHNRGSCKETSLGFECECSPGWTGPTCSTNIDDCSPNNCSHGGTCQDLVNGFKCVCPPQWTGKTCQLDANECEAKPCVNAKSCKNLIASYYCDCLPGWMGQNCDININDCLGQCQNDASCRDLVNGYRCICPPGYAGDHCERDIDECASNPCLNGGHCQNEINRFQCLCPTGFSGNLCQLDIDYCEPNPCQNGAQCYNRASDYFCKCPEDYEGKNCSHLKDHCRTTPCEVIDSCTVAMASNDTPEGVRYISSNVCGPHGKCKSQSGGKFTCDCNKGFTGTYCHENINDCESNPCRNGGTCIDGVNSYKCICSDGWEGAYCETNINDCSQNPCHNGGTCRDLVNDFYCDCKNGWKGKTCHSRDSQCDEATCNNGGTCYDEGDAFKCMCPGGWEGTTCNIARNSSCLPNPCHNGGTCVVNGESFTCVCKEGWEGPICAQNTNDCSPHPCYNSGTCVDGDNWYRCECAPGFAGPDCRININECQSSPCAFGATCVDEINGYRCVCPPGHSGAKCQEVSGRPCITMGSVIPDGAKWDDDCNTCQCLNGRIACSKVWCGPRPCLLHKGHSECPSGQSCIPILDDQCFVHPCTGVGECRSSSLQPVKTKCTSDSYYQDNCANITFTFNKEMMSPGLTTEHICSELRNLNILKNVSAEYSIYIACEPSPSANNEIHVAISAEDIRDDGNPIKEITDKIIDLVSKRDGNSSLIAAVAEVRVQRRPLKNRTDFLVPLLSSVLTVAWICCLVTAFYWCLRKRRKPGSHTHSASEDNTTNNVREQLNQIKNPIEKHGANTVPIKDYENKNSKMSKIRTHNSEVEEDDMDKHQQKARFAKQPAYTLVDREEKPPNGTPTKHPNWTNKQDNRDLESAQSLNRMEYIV
- Assay Overview: Notch binding blocking assay (FACS): N1 EGF11-13 beads staining human J1-expressing cells
- Conditions Used: final antibody concentration 0.6 μg/ml
Endpoint: Blocking of Notch1 binding to cell surface Jagged 1

[
  {
    "Molecule": "J1-183D variant 12: humanised/de-immunised J1-183D: J1-183D_VL_3 + J1-183D_VH_4 (antibody, V domains shown) VH: QVQLVQSGAEVKKPGASVKVSCKASGYTFTDYAIHWVRQAPGQGLEWMGIINTYYGDSKYAQKFQGRVTMTVDTSTSTAYMELSSLRSEDTAVYYCARGYDGFAYWGQGTLVTVSSASTKGP VL: DIQMTQSPSSLSASVGDRVTITCRTSENIYSYLTWYQQKPGKAPKLLIYNAKILDSGVPSRFSGSGSGTDFTLTISSLQPEDFATYYCQHHYDIPWTFGGGTKLEIKRT",
    "Measurement": "+ (Complete blocking)"
  },
  {
    "Molecule": "J1-65D variant 2: humanised/de-immunised J1-65D: J1-65D_VL_1 + J1-65D_VH_2 (antibody, V domains shown) VH: QVQLVQSGAELKKPGSSVKVSCKASGYTFTDYEMHWVRQAPGQGLEWMGAIQPGGGGTAYAQKFKGRVTLTADKSTSTAYMELSSLRSEDTAVYYCTRRGYDDYPFAYWGQGTLVTVSSASTKGP VL: DIQMTQSPSSLSASVGDRVTITCRASGNIHNYLAWYQQKPGKAPKLLIYNAKTLADDVPSRFSGSGSGTDYTLTISSLQPEDFATYYCQHFWSAPWTFGGGTKLEIKRT",
    "Measurement": "+ (Complete blocking)"
  }
]

Data provenance is patent US9725518B2.
